Parameter apparent KD of MS2 coat protein: see the listing below.
# Tested on: MS2 coat protein
# TEST DESCRIPTION: apparent KD of MS2 coat protein; designed switch direction (-1 OFF switch, 1 ON switch): -1; higher = weaker reporter binding
# CONDITION SUMMARY: Eterna round: R95; input ligand: microRNA oligo, concentration not stated
The figure you give is taken to be in nM; do not add the unit.

Recorded results for 5 sequences are shown here.
{"MACROMOLECULE SEQUENCE": "GAAAAGGUAGGAUAUACGAAAAAAAAGGCUAGAAAAAAAACACAUGAGGAUCACCCAUGUAGAAGGACCAAAAG [salish99_ex2_r3_068] (puzzle: Exclusion 2)", "apparent KD of MS2 coat protein (nM)": 28.8}
{"MACROMOLECULE SEQUENCE": "UCCUUACAUGAGGAUCACCCAUGUCAGGAUAUCUCCUCACUGCGCUUGCGCAGUGAAUAGAGAAGGGACGGGCU [JL ViennaUCT Aner mod 8] (puzzle: Exclusion 1)", "apparent KD of MS2 coat protein (nM)": 32.4}
{"MACROMOLECULE SEQUENCE": "CUUCAGUAAGGAUAUCAGCUUAGGAGGUUGGUAAUGAGAGCUGAGAAGGUACAUGAGGAUCACCCAUGUUAGUU [JL Zatite mod 8] (puzzle: Exclusion 4)", "apparent KD of MS2 coat protein (nM)": 17}
{"MACROMOLECULE SEQUENCE": "GGUUGGCGAGGAUAUACAUGAGGAUCACCCAUGUGAGAGAAUAAGUGAGGAAAGAAAAGUAGAAGGCGCUGACG [Mat - Exclusion 3 - Mod of Salish D52] (puzzle: Exclusion 3)", "apparent KD of MS2 coat protein (nM)": 44.5}
{"MACROMOLECULE SEQUENCE": "UUUAAUUUUUUUUUUUUACAAGCUUUUUGCUCGUCUUAUACAUGAGGAUCACCCAUGUAGGUGAAGGAUAAAUUAUC [JMF 27] (puzzle: Sensor v3, turn-off variant 2)", "apparent KD of MS2 coat protein (nM)": 66.4}

Missing value: apparent KD of MS2 coat protein, MS2 coat protein, entry GUGUACAGAGGAUAUGCUGGAAUCUAGCGAAGCUAGGUUCCACAUGAGGAUCACCCAUGUAGAAGGCUGUACAC [Dot plot directed A v4] (puzzle: Exclusion 2) . Fill in?
19.4

GET /values?readout=apparent KD of MS2 coat protein&system=MS2 coat protein&item= AGGGAUAAAGGAUAUACAUGAGGAUCACCCAUGUUGAGGAAAGUGAGAGGUGGCGAUAGUAGAAGGUUAGGUAG [JR_Exclu3_Sub082] (puzzle: Exclusion 3)
78.8

Hello, I am looking for reported apparent KD of MS2 coat protein with MS2 coat protein for AAUAACAGAGGAUAUACUGUUUUAUGUGUUUGUUGUUUUGAACAUGAGGAUCACCCAUGUAGAAGGCUGAUUGA [JMF 79] (puzzle: Exclusion 2) . Could you help?
38.7

Request - read-out apparent KD of MS2 coat protein | tested on MS2 coat protein | sequence CAGUACUGAGGAUAUACAUGAGGAUCACCCAUGUGUUCCGGCUAGGAAACUAGCAAAAGUAGAAGGCAGUACUG [salish99_ex3_r3_079] (puzzle: Exclusion 3)
30.8

Field: apparent KD of MS2 coat protein (MS2 coat protein). Entry: AAUAACAGAGGAUAUACUAUUUUAUGUGUUUAUUGUUUUGAACAUGAGGAUCACCCAUGUAGAAGGCUGAUUAA [JMF 51] (puzzle: Exclusion 2)
35.3

Hi! What's the reported apparent KD of MS2 coat protein for UCAUAACAUGAGGAUCACCCAUGUGAGGAUAUGAUACUAUGUACUUCGGUACAUAGUAUCAGAAGGCACAUACU [Ex1-3: 11] (puzzle: Exclusion 1) on MS2 coat protein?
88.9
